Biological target: hERG potassium channel (Homo sapiens, UniProt Q12809)
Sequence (Q12809 whole entry): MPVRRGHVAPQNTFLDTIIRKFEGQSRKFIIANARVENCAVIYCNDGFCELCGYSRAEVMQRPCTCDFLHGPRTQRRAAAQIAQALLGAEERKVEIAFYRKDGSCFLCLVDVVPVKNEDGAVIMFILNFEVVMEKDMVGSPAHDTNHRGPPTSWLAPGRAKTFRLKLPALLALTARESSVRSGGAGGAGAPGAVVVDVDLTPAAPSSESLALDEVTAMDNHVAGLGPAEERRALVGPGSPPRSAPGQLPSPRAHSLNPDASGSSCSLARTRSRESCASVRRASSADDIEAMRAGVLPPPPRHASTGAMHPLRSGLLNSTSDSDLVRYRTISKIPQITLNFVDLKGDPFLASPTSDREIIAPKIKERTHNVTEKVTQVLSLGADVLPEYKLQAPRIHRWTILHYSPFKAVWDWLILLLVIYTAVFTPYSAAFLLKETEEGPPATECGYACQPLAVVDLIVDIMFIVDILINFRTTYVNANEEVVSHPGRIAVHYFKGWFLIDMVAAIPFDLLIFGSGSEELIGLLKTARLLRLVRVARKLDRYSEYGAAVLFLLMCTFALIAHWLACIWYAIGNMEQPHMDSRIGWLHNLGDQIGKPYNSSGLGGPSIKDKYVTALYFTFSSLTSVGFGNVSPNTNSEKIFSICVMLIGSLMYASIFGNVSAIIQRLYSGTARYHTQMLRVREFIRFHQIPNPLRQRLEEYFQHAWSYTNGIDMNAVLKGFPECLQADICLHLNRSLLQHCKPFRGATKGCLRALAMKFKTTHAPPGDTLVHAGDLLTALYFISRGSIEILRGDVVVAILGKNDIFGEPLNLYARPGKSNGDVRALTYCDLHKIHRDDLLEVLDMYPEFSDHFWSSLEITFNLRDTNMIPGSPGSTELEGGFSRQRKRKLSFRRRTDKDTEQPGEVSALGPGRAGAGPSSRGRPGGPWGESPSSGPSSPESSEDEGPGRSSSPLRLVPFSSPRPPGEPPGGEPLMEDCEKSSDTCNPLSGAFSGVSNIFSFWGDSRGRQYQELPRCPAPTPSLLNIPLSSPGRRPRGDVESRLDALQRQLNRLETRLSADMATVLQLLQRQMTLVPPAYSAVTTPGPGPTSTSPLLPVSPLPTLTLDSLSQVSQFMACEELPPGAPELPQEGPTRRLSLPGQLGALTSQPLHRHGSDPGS
Assay: Eurofins Safety Screen 44
Settings: probe [3H] Dofetilide
measurement type: inhibition at 10 µM (%)
Reply numerically in %, unit not repeated.

inhibition at 10 µM reported for this molecule CO[C@H]1C[C@@H]2CC[C@@H](C)[C@@](O)(O2)C(=O)C(=O)N2CCCC[C@H]2C(=O)O[C@H]([C@H](C)C[C@@H]2CC[C@@H](OC(=O)NCCOCCOCCOCCOCCOCCOCCOCCOCCC(=O)N3CCc4cc(Cn5nc(-c6ccc7oc(N)nc7c6)c6c(N)ncnc65)ccc4C3)[C@H](OC)C2)C[C@@H](O)[C@H](C)/C=C(\C)[C@@H](O)[C@@H](OC)C(=O)[C@H](C)C[C@H](C)/C=C/C=C/C=C/1C : -1.2
